system: SW 1271 complex tumor spheroid viability; assay: Anticancer human tumor SW 1271 cell line growth inhibition; conditions: second compound 0.000949 µM; first compound 0.949 µM; stronger effect = lower value;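 further: spheroids exposed to agents for seven days before readout; percent of DMSO vehicle control luminescence so 100% = vehicle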
test readout: viability, T/C (%)
Report the value in % with no unit label.

The examples below pair each entry with its known result.
O=C(c1cc(Cc2n[nH]c(=O)c3ccccc23)ccc1F)N1CCN(C(=O)C2CC2)CC1 + COc1cc2c(cc1O)CCNC21CSC2c3c(OC(C)=O)c(C)c4c(c3C(COC1=O)N1C(O)C3Cc5cc(C)c(OC)c(O)c5C(C21)N3C)OCO4 ... 3.15
Cn1ncnc1[C@H]1c2n[nH]c(=O)c3cc(F)cc(c23)N[C@@H]1c1ccc(F)cc1 + COc1cc2c(cc1O)CCNC21CSC2c3c(OC(C)=O)c(C)c4c(c3C(COC1=O)N1C(O)C3Cc5cc(C)c(OC)c(O)c5C(C21)N3C)OCO4 ... 2.29
Cc1sc2c(c1C)C(c1ccc(Cl)cc1)=NC(CC(=O)Nc1ccc(O)cc1)c1nnc(C)n1-2 (centres undefined) + COc1cc2c(cc1O)CCNC21CSC2c3c(OC(C)=O)c(C)c4c(c3C(COC1=O)N1C(O)C3Cc5cc(C)c(OC)c(O)c5C(C21)N3C)OCO4 ... 0.1

Here is the next item to consider.
Ask | Could you share what viability, T/C was measured for CNCc1ccc(-c2cc(-c3nc(-c4ccc(S(=O)(=O)C(C)C)cc4)cnc3N)on2)cc1 + COc1cc2c(cc1O)CCNC21CSC2c3c(OC(C)=O)c(C)c4c(c3C(COC1=O)N1C(O)C3Cc5cc(C)c(OC)c(O)c5C(C21)N3C)OCO4 , tested on SW 1271 complex tumor spheroid viability?
Reply | 1.95
